- Assay Details: Drug repurposing screens with cells derived from glioblastoma tumor samples (AID 1345199); further: on the % scale 0 is the no-effect control and ±100 the full control effect
- Measurement Context: GBM patient neurospheres viability, ATP luminescence, 48 h; at 46.1 µM (top of the series); tumour line C
Results filed as inconclusive are left out.
Cut-off -20% on activity, negative = cell killing: below means yes (1), at or above means no (0).

Molecule	Cat
Cc1cc(C)c(NC(=O)CN(CC(=O)O)CC(=O)O)c(C)c1Br	no (0)
Cn1c([N+](=O)[O-])cnc1COC(N)=O	yes (1)
O=C(NCN1CCOCC1)c1cnccn1	no (0)
Nc1c2c(nc3c1CCC3)CCCC2	yes (1)
OCc1ccc(Cl)cc1Cl	no (0)
Cc1ccc(C(C)C)c(O)c1	no (0)
C=CCSCC1Nc2cc(Cl)c(S(N)(=O)=O)cc2S(=O)(=O)N1 (stereo not given)	no (0)
CC[C@H](C)[C@H](N)C(=O)O	no (0)
C[C@@H](N)C(=O)O	no (0)
Cc1cc(OI)c(C(C)C)cc1-c1cc(C(C)C)c(OI)cc1C	no (0)
CN(C(=O)c1c(O)c2ccccc2n(C)c1=O)c1ccccc1	yes (1)
O=C(O)c1ccc[n+]([O-])c1	yes (1)
CC1(C)S[C@@H]2[C@H](N=CN3CCCCCC3)C(=O)N2[C@H]1C(=O)O	no (0)
CC[C@]12CCCN3CCc4c(n(c5ccccc45)[C@@](O)(C(=O)OC)C1)[C@@H]32	yes (1)
N[C@@H](Cc1ccc(O)cc1)C(=O)O	no (0)
O=C(CN1CCNCC1)NC1CCCCC1	yes (1)
CCCCCCCCCCCCCCCCCCO	no (0)
Nc1ccc(S(=O)(=O)c2ccc(N)cc2)cc1	no (0)
CCOC(=O)[C@H](CCc1ccccc1)N[C@@H](C)C(=O)N1CCC[C@H]1C(=O)O	yes (1)
CC(C)CCOC(=O)c1ccc(N(C)C)cc1	no (0)
CCN(CC)CC1CCCCN1CC(=O)N1c2ccccc2C(=O)Nc2cccnc21 (stereo not given)	no (0)
CC(=O)Oc1cccc(C)c1	no (0)
O=C1C(c2[nH]c3ccccc3c2O)=Nc2ccccc21	no (0)
O=C(O)CCCCC1CCSS1 (stereo not given)	no (0)
COc1cc(C(=O)NCCCCCC(=O)O)cc(OC)c1OC	yes (1)
CC(=O)Nc1ccc(OCCOCCOc2ccc(NC(C)=O)cc2)cc1	no (0)
OCCN1C[C@H](O)[C@@H](O)[C@H](O)[C@H]1CO	yes (1)
O=C1c2ccccc2C(=O)C1c1ccc(Br)cc1	no (0)
CC1CC(OC(=O)c2ccccc2O)CC(C)(C)C1 (stereo not given)	no (0)
O=c1[nH]c(=O)c2ccccc2o1	yes (1)
CN1CC(=O)NC1=N	no (0)
CC(=O)Nc1ccccc1	no (0)
COc1ccccc1OC(=O)Oc1ccccc1OC	no (0)
CC(C)CCCC(C)CCCC(C)CCCCC(C)CCCC(C)CCCC(C)C (stereo not given)	no (0)
CC(=O)N[C@@H](CC(C)C)C(=O)O	no (0)
Cc1cc(O)cc(C)c1Cl	no (0)
Nc1ncnc(Nc2ccccc2)n1	yes (1)
CCCCCCCCCCOc1cc2c(=O)c(C(=O)OCC)c[nH]c2cc1OCC	yes (1)
CN1CCCN=C1COC(=O)C(O)(c1ccccc1)C1CCCCC1 (stereo not given)	no (0)
CN[C@@H]1[C@@H](O)[C@@H](O[C@@H]2[C@H](O)[C@H](O[C@H]3OC(CN)=CC[C@H]3N)[C@@H](N)C[C@H]2N)OCC1(C)O (stereo not given in full)	no (0)
CC1(C)S[C@@H]2[C@H](NC(=O)C(C(=O)O)c3ccccc3)C(=O)N2[C@H]1C(=O)O (stereo not given in full)	no (0)
CC(C)C[C@@H](N)C(=O)O	no (0)
